Reported remaining at 2190 h is given for each of the following compounds.
test: Stability: residual amount of test compound after standing at 30° C. for 3 months, liquid chromatography; assay type: physicochemical; conditions: hair tonic, Table V; 0.05% in hair tonic, 30° C., 3 months; read-out: Stability Residue(%)

>  <Compound>
CCCCNc1nc2c(N)ncnc2n1[C@@H]1O[C@@H]2COP(=O)(O)O[C@H]2[C@H]1O [8-butylamino cAMP-Na]

>  <remaining at 2190 h, %>
99.5

$$$$
>  <Compound>
Nc1ncnc2c1nc(O)n2[C@@H]1O[C@@H]2COP(=O)(O)O[C@H]2[C@H]1O [8-hydroxy cAMP-Na]

>  <remaining at 2190 h, %>
99.7

$$$$
>  <Compound>
COc1nc2c(N)ncnc2n1[C@@H]1O[C@@H]2COP(=O)(O)O[C@H]2[C@H]1O [8-methoxy cAMP-Na]

>  <remaining at 2190 h, %>
99.9

$$$$
>  <Compound>
CCOc1nc2c(N)ncnc2n1[C@@H]1O[C@@H]2COP(=O)(O)O[C@H]2[C@H]1O [8-ethoxy cAMP-Na]

>  <remaining at 2190 h, %>
99.8

$$$$
>  <Compound>
CCCCSc1nc2c(N)ncnc2n1[C@@H]1O[C@@H]2COP(=O)(O)O[C@H]2[C@H]1O [8-butylthio cAMP-Na]

>  <remaining at 2190 h, %>
99.9

$$$$
>  <Compound>
CCCCOc1nc2c(N)ncnc2n1[C@@H]1O[C@@H]2COP(=O)(O)O[C@H]2[C@H]1O [8-butoxy cAMP-Na]

>  <remaining at 2190 h, %>
99.9

$$$$
>  <Compound>
Nc1ncnc2c1nc(Sc1ccc(Cl)cc1)n2[C@@H]1O[C@@H]2COP(=O)(O)O[C@H]2[C@H]1O [8-4-chlorophenylthio cAMP-Na]

>  <remaining at 2190 h, %>
99.9

$$$$

###

experiment: Stability: residual amount of test compound after standing at 30° C. for 3 months, liquid chromatography; format: physicochemical; conditions: hair tonic, Table III; 0.1% in hair tonic, 30° C., 3 months; read-out: Stability Residue(%)
Measured quantity: remaining at 2190 h (%)

>  <Compound>
CSc1nc2c(N)ncnc2n1[C@@H]1O[C@@H]2COP(=O)(O)O[C@H]2[C@H]1O [8-methylthio cAMP]

>  <Result>
99.9

$$$$
>  <Compound>
Nc1ncnc2c1nc(F)n2[C@@H]1O[C@@H]2COP(=O)(O)O[C@H]2[C@H]1O [8-fluoro cAMP]

>  <Result>
99.5

$$$$
>  <Compound>
Nc1ncnc2c1nc(SCc1ccccc1)n2[C@@H]1O[C@@H]2COP(=O)(O)O[C@H]2[C@H]1O [8-benzylthio cAMP]

>  <Result>
100

$$$$
>  <Compound>
O=P1(O)OC[C@H]2O[C@@H](n3cnc4c3ncn3ccnc43)[C@H](O)[C@@H]2O1 [1,N^6 -etheno cAMP]

>  <Result>
99.8

$$$$
>  <Compound>
Nc1ncnc2c1nc(Sc1ccccc1)n2[C@@H]1O[C@@H]2COP(=O)(O)O[C@H]2[C@H]1O [8-phenylthio cAMP]

>  <Result>
100

$$$$
